target: 11β-HSD1 (Homo sapiens); construct: detecting cortisol generated from cortisterone by human liver microsomes; from tissue; host or cells: human liver microsomes; assay: In vitro inhibition of 11β-HSD1, HTRF detection of cortisol generated from cortisone by human liver microsomes; type: biochemical; settings: 11β-HSD IC50 (nM), 1 hour at 37° C., pH 6.0, NADPH 200 μM, cortisone 80 nM, inhibition relative to carbenoxolone signal
outcome-measure: log10 IC50 (log10 of the value in nM)
Scale: decimal log of IC50, IC50 in nM.

Write down log10 IC50 measured for item CC1(C)[C@H]2Cc3c(O)cccc3[C@]1(C)CCN2C(=O)c1ccc(CN)cc1 3.15

Write down log10 IC50 measured for item Cc1nc2cc3c(cc2o1)[C@]1(C)CCN(C(=O)c2ccc4nc[nH]c4c2)[C@H](C3)[C@H]1C 2.18

Write down log10 IC50 measured for item CN(Cc1ccccc1)C(=O)c1ccc(C(=O)N2CC[C@@]3(C)c4cccc(O)c4C[C@@H]2C3(C)C)cc1 2.80

Write down log10 IC50 measured for item CC1(C)[C@H]2Cc3cc4nc(-c5cccnc5)[nH]c4cc3[C@]1(C)CCN2C(=O)c1ccc2nc[nH]c2c1 1.71

Write down log10 IC50 measured for item Cc1nnc(-c2ccc3c(c2)[C@]2(C)CCN(C(=O)c4ccc5nc[nH]c5c4)[C@H](C3)[C@H]2C)o1 1.81

Write down log10 IC50 measured for item CC1(C)[C@H]2Cc3c(O)cccc3[C@]1(C)CCN2C(=O)c1n[nH]c2c1CCC2 2.74

Write down log10 IC50 measured for item COc1ccc2c(c1)[C@]1(C)CCN(C(=O)c3ccccc3C)[C@H](C2)[C@@H]1C 3.16

###

target: 11β-HSD1 (Homo sapiens, UniProt P28845); construct: detecting cortisol generated from cortisterone by human liver microsomes; from tissue; host or cells: human liver microsomes; experiment: In vitro inhibition of 11β-HSD1, HTRF detection of cortisol generated from cortisone by human liver microsomes; assay type: biochemical; details: 11β-HSD IC50 (nM), 1 hour at 37° C., pH 6.0, NADPH 200 μM, cortisone 80 nM, inhibition relative to carbenoxolone signal
Sequence (P28845 whole entry): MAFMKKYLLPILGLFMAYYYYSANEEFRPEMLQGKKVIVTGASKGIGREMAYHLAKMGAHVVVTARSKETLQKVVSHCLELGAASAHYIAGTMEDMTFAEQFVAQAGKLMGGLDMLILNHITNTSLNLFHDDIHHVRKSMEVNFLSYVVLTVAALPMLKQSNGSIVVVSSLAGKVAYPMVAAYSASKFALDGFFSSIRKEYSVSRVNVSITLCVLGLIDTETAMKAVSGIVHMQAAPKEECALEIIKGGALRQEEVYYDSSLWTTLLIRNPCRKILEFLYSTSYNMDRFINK
outcome-measure: IC50 (nM)
Give a bare numeral; the unit nM is implied.

Examples with answers:
compound | tested-target | IC50 (nM)
C[C@@H]1[C@H]2Cc3ccc(-c4cncnc4)cc3[C@]1(C)CCN2C(=O)c1ccc2nc[nH]c2c1 | 11β-HSD1 (Homo sapiens, UniProt P28845) | 61
Cc1ccc2c(c1)C1(C)CCN(C(=O)c3ccc4nc[nH]c4c3)C(C2)C1(C)C (stereo not drawn) | 11β-HSD1 (Homo sapiens, UniProt P28845) | 105
Cc1nc2cc(C(=O)N3CC[C@@]4(C)c5cccc(O)c5C[C@@H]3C4(C)C)ccc2c(=O)[nH]1 | 11β-HSD1 (Homo sapiens, UniProt P28845) | 3880
CC1CN(Cc2ccc(C(=O)N3CC[C@@]4(C)c5cccc(O)c5C[C@@H]3C4(C)C)cc2)CCO1 (stereo partly drawn) | 11β-HSD1 (Homo sapiens, UniProt P28845) | 689
CC1(C)[C@H]2Cc3c(O)cccc3[C@]1(C)CCN2C(=O)c1ccc2[nH]ccc2c1 | 11β-HSD1 (Homo sapiens, UniProt P28845) | 168

Next compound, IC50 to be filled in.
Write down IC50 measured for item CC1(C)[C@H]2Cc3c(O)cccc3[C@]1(C)CCN2C(=O)c1ccc(C(=O)N2CCCCC2)cc1 950

Source listed as patent US8859580B2.
